test system: K4 kissing-loop RNA reporter; test: apparent KD of K4 kissing-loop reporter; higher = weaker reporter binding; details: Eterna round: R107; input ligand: none;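 also: bound reporter read as fluorescence of individual clusters on recovered sequencing chips by microscopy, with normalized cluster intensities fitted with a binding model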
As shown below, each of these sequences has a reported apparent KD of K4 kissing-loop reporter value.
Entry rule: numbers only, all in µM.

Example entries and their recorded answers appear below.
| seqText | readoutUnit | apparent KD of K4 kissing-loop reporter |
| --- | --- | --- |
| ACUGGGUUGACGAAAGUCAACAAAUGAGAAGGAGCGCACGAAAGUGCAGGUAGGUCGCUCAUUCCAGUGAUGUUGGAUCACCAGA [#SwitchBubble 19 #K4Late] | µM | 0.836 |
| GGUAGCAUGGCGGCCGCCACUCGGACGACAUAGCACAUGUCGACCAGUGAUGUUGGUUCAAACACGAGGACCGGGCCAUGCUACC | µM | 0.798 |
| UCCUGCAAUCGGCCACGAAAGUGGAUUGAUACCAGAGUCGAAAGACUCCCUUGGCAGCGAGUGAUGUUCGAAGCAGGUAAAUAAA | µM | 0.502 |

Field: next sequence
Data request: Please report the measured apparent KD of K4 kissing-loop reporter for AGAUAGGGCUGAAGGAGCGUCGGAAAAGAAAAGAUGAAAUCCAGUGAUGUUGGAUAAAUCCGACAGGUAGGUCGCAGUUUUAUGA [#01 K4 Arginine B Same State]
Data returned: 0.133

---

Entries annotated with measured apparent KD of MS2 coat protein
test system: MS2 coat protein; test: apparent KD of MS2 coat protein; designed switch direction (-1 OFF switch, 1 ON switch): -1; higher = weaker reporter binding; conditions: input ligand: none

// solved cases for apparent KD of MS2 coat protein follow
| seqText | apparent KD of MS2 coat protein |
| --- | --- |
| GUCGUGCGGCUUUGCUGUGCGGGUACAUGAGGAUCACCCAUGUAGGAUAUGGUGCGCUUUGCGUGCCAGAAGGGCGUGCGUUGG [salish99_ExNG3_r04_010] (Eterna round: R96, puzzle: Exclusion NG 3) | 36.4 nM |
| UGUCUGUCAGGAUAUUCGAGUUCGAGUGAAAGCUUGAGCUUGAAGAAGGGACAUGAGGAUCACCCAUGUGGACG [-28.5, -27.4 kcal, A 27%, 1bis-(ca)1] (Eterna round: R97, puzzle: Exclusion 4) | 50.1 nM |
| AUAUAGCGAGGAUAUACAUGAGGAUCACCCAUGUGGUAGUAGAUACGGUAGAGAUAGUGUAGAAGGCGCUAUGA [EX3 #9] (Eterna round: R97, puzzle: Exclusion 3) | 233 nM |
| GGUCCUGAUGAUUUCCUAUACAUGAGGAUCACCCAUGUAUGUGUAUUUUGUUUUUCGCUUUUUGGUCGUCAAUAAUA [Mod-Hoo-honey-2] (Eterna round: R97, puzzle: Sensor, turn-off variant 1) | 33.4 nM |
| ACUCCUCCUGUUAGGAUAUGCAUCGGGCUUCCGCAGCAGAAGGAACAUGAGGAUCACCCAUGUCAAAUAAAAUC [Inxebexe] (Eterna round: R96, puzzle: Brourd's mod of Exclusion 4) | 26.9 nM |

Data request: // fetch apparent KD of MS2 coat protein for UAGGAACGAGGAUAUACACCUGCAAGUGGUGUGGGUACACCACAUGAGGAUCACCCAUGUAGAAGGCGUACCAA [Lelebi] (Eterna round: R97, puzzle: Exclusion 2) ; system: MS2 coat protein
Data returned: 12.3 nM

Data request: Jot down apparent KD of MS2 coat protein (MS2 coat protein) of AUCGUGCAGCUUUGCUGUACGAGUACAUGAGGAUCACCCAUGUAGGAUAUGGUACGCUUUGCGUGCCAGAAGGACGUGCGUUAG [salish99_ExNG3_r04_003] (Eterna round: R96, puzzle: Exclusion NG 3) .
Data returned: 43.7 nM

Where do the numbers come from? From the supplement of paper PMC9170038.
